Test system: RXRa homodimer (NR concentration 180 nM)
Test: PBM binding z-score (relative to random genomic background probes); higher = stronger binding; sequences stand for … in GC…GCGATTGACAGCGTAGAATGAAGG
Param threshold (3) applies to PBM binding z-score; output Condition met when value >= threshold, Condition not met when value < threshold.

                     ordered_residues  assigned_category
0  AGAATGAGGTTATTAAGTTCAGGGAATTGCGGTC  Condition not met

PBM binding z-score >= 3 for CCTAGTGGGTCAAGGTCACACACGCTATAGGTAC ?
Condition met

And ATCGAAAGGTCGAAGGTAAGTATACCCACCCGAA ?
Condition met

And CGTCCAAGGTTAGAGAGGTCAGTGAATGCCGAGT ?
Condition met

And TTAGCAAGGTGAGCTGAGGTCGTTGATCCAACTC ?
Condition not met

And TTACCGAGGTGAGCTGAGGTCGTTGATCCAACTC ?
Condition not met

* * *

System: RARg homodimer (NR concentration 270 nM)
Assay: PBM binding z-score (relative to random genomic background probes); higher = stronger binding; sequences stand for … in GC…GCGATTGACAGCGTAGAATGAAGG
Param threshold (3) applies to PBM binding z-score; output 1 when value >= threshold, -1 when value < threshold.

Consider the worked cases shown below.
>>> df
                     ordered_residues  assigned_category
0  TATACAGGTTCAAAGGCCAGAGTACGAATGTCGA                 -1
1  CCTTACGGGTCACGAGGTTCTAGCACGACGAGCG                  1
2  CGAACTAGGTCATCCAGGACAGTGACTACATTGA                  1
3  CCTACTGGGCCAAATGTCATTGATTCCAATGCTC                 -1
4  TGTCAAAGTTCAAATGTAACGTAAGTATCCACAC                  1

PBM binding z-score >= 3 for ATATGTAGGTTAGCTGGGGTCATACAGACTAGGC ?
1

And TCTTGTAGATCAATAGCGGTTAAGAAAGTGCGCT ?
-1

And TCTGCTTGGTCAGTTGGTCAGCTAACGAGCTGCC ?
-1

And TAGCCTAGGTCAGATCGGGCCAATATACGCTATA ?
1

And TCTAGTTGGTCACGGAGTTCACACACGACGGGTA ?
-1

And AGAATGAGGTTATTAAGGTCAGGGAATTGCGGTC ?
1

And AGAATGAGGTTAAGATCGGGGAAACAGAATACAT ?
-1

* * *

Tested on: RARb:RXRa (NR concentration 270 nM, RXRa partner concentration 90 nM)
Assay: PBM binding z-score (relative to random genomic background probes); higher = stronger binding; sequences stand for … in GC…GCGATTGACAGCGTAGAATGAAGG
Assign PBM binding z-score to each entry below.
Answers are plain numbers.

>>> print(df.to_string())
                     ordered_residues        readout_label  measured_value
0  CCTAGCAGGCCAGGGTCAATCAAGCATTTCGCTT  PBM binding z-score            2.72
1  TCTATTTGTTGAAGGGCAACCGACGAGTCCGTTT  PBM binding z-score            1.68

Each of the following entries comes with a recorded value; kindly state PBM binding z-score for each.
1. AGAATGAGGTTACCAAAGATGAGGGAAACGCTTG
2. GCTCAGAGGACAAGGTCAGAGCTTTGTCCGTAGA
3. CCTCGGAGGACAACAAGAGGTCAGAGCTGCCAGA
4. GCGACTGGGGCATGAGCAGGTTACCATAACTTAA

[2.14, 3.78, 3.18, 0.781]

Each of the following entries comes with a recorded value; kindly state PBM binding z-score for each.
1. CAAACTAGGTCACAGATGTCAAAGTCCGTGCGTA
2. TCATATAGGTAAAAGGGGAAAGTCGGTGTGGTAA
3. AGAATGAGGTTAAGATAAGGGAAACAGAATACAT
4. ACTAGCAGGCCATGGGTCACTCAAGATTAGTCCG
5. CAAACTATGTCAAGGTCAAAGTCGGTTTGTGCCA
6. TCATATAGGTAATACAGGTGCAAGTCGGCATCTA

1: 4.17; 2: 0.958; 3: 1.83; 4: 1.94; 5: 4.25; 6: 0.563
